- Measurement Description: Cytotoxicity against pig PS cells
- Type: cell-based, Sus scrofa
- Measurement Setup: read-out: ED50 (the source's name)
Measured Property: CC50 (mg/L)
Response body: numeric value in mg/L, unit text excluded.

Inquiry: Record request: CC50 value, item CCCC(=O)O[C@@H]1C[C@H]2C(C)(C)CCC[C@]2(C)[C@H]2CC[C@H]3C(=O)O[C@H]4O[C@@H](O)[C@]21[C@H]43
Reply text: 6.5

* * *

- Measurement Description: Cytotoxicity against bovine Bon-Fib cells after 48 hrs
- Format: cell-based, Bos taurus
- Measurement Setup: cattle
Measured Property: CC100 (µg/mL)
Response body: numeric value in µg/mL, unit text excluded.

Sample records with CC100:
CC1(C)CCC[C@]2(C)[C@H]3CC[C@H]4C(=O)OC5O[C@@H](O)[C@]3(CC[C@@H]12)[C@H]54 (some centres not stated); 13
CC1(C)C(=O)CC[C@]2(C)[C@H]3CCc4cocc4[C@]3(C)CC[C@@H]12; 40
CC1(C)CCC[C@]2(C)[C@H]3CC[C@H]4C(=O)OC[C@H]4[C@]3(C=O)CC[C@@H]12; 40

Inquiry: Record request: CC100 value, item CO[C@H]1CC[C@]2(C)[C@H]3CCc4cocc4[C@]3(C)CC[C@H]2[C@@H]1C
Reply text: 36

Inquiry: Record request: CC100 value, item CC(=O)OC[C@@H]1[C@H]2CC[C@@H]3[C@@]4(C)CCCC(C)(C)[C@@H]4CC[C@@]13COC2=O
Reply text: 36

Inquiry: Record request: CC100 value, item CC(=O)O[C@H]1OC(=O)[C@@H]2CC[C@@H]3[C@@]4(C)CCCC(C)(C)[C@@H]4CC[C@@]3(C=O)[C@H]12
Reply text: 24
